Test system: A2780/cis cells
ASSAY_OVERVIEW: Chemosensitivity MTT assay, cisplatin-resistant A2780/CIS
Format: cell-based, human
CONDITION_LABEL: Homo sapiens, A2780cis, 96 h, ± SE, read-out: Activity against A2780/cis cells, IC50
Lab note - cut at 0.3 µM for IC50: Satisfied if strictly below, Not satisfied if not.

Request: In plain terms, does C[n+]1c2ccccc2cc2[n-]c3c(Br)cc(Br)cc3c21 [Compound 4, 7,9-Dibromocryptolepine] come in under 0.3 µM for IC50?
Response: Not satisfied

Request: Try C[n+]1c2ccccc2cc2[n-]c3ccc(Br)cc3c21 [Compound 3, 7-Bromocryptolepine] next.
Response: Satisfied

Request: Moving on to the next compound: C[n+]1c2ccccc2cc2[n-]c3ccc(I)cc3c21 [Compound 5, 7-iodocryptolepine]
Response: Not satisfied

Request: Would you kindly repeat that for C[n+]1c2ccccc2cc2[n-]c3c(I)cc(I)cc3c21 [Compound 6, 7,9-diiodocryptolepine] ?
Response: Satisfied

Request: Then what about the compound Cn1c2c3ccccc3nc-2cc2ccccc21 [Compound 1, cryptolepine] ?
Response: Not satisfied

----------
System: P. falciparum K1
ASSAY_OVERVIEW: In vitro antiplasmodial activity, P. falciparum K1 (lactate dehydrogenase assay)
Assay type: cell-based, Plasmodium falciparum
CONDITION_LABEL: Plasmodium falciparum; chloroquine-resistant strain K1, 48 h, mean ± SE; read-out: Activity against P. falciparum K1, IC50
Description: P. falciparum (K1 clone) was maintained in human erythrocytes prepared from the donated blood samples (blood groups unknown, Ethical Tissue, University of Bradford), suspended in the RPMI 1640 medium as previously described ([Wright et al., 2001]), except that serum was replaced with Albumax II, [5% (^w/v)]. […] The parasite growth was assessed by measuring lactate dehydrogenase activity as described by [Makler et al. (1993)]. […]
ATTRIBUTE_MEASURED: IC50 (nM)
Provide only the numeric value, understood in nM.

Request: What value of IC50 has been reported for the following molecule? C[n+]1c2ccccc2cc2[n-]c3c(I)cc(I)cc3c21 [Compound 6, 7,9-diiodocryptolepine]
Response: 250

Request: Field entry: C[n+]1c2ccccc2cc2[n-]c3ccc(I)cc3c21 [Compound 5, 7-iodocryptolepine]
Response: 160

Request: How about C[n+]1c2ccccc2cc2[n-]c3ccc(Br)cc3c21 [Compound 3, 7-Bromocryptolepine] ?
Response: 150

Request: Do the same for C[n+]1c2ccccc2cc2[n-]c3c(Br)cc(Br)cc3c21 [Compound 4, 7,9-Dibromocryptolepine] please
Response: 440

Request: Item: Cn1c2c3ccccc3nc-2cc2ccccc21 [Compound 1, cryptolepine]
Response: 440
